Listing: TGI of selected molecules
- Tested on: SR leukemia
- assay protocol: NCI tumour cell line growth inhibition, 48 h

For orientation, consider the following solved cases.
>>> experimental_value("Clc1ccc2c(NCCCNCc3ccc4c(c3)OCO4)ccnc2c1")
"4.67 µM"
>>> experimental_value("CCOC(=O)C(C(=O)OCC)C(=S)NC1OC(COC(C)=O)C(OC(C)=O)C(OC(C)=O)C1OC(C)=O (configuration not stated)")
"> 100 µM"
>>> experimental_value("O=C(O)COc1cccc2ccccc(=O)c12")
"> 100 µM"
>>> experimental_value("O=C1N(c2ccccc2)N=C2c3ccncc3C3=NN(c4ccccc4)C(=O)C123 (configuration not stated)")
"> 100 µM"
>>> experimental_value("Nc1c2c(c(O)c3c1=C(CO)C=N3)=NCCS2=O (configuration not stated)")
"9.33 µM"
>>> experimental_value("Cc1cccc2c1CC1(Cc3c(C)cccc3C1=O)C2=O")
"> 100 µM"

Query :: Could you share which TGI value was measured for COc1ccc(/C=C2/C(=O)C(c3ccccc3)N(c3ccccc3)C2=O)cc1OC (configuration not stated) ?
Result :: > 10 µM

Query :: How about this molecule: `CN1CCN2CCN(C)CCN(CC1)CC2`
Result :: > 100 µM

Query :: How about this molecule: `COc1ccc(/C=C2\NC(=S)N(CN3CCOCC3)C2=O)cc1`
Result :: > 100 µM

Query :: How about this molecule: CC(C)[Si](CC1=CCCCC12C(=O)N(COCC[Si](C)(C)C)c1ccccc12)(C(C)C)C(C)C (configuration not stated)
Result :: > 100 µM

Query :: How about this molecule: [B]C(=O)NC(CC(C)C)C(=O)NC1c2ccsc2C(=O)C1O (configuration not stated) (tested in a mixture with another compound)
Result :: > 100 µM

Query :: How about this molecule: NC1=C(O)/C(=N/NS(=O)(=O)c2ccccc2)C(c2cccc(Cl)c2)O1 (configuration not stated)
Result :: 9.15 µM

----------
- Test system: UO-31 renal
- assay protocol: NCI tumour cell line growth inhibition, 48 h
value kind: TGI

>>> experimental_value("CCOC(=O)CCNC(=O)c1cc(C)cc2c1Oc1c(cc(C)cc1C(=O)NCCC(=O)OCC)S2")
"> 100 µM"
>>> experimental_value("O=c1c(-c2nc3ccccc3[nH]2)cc2ccccc2n1Cc1cn(Cc2ccc(F)cc2)nn1")
"> 100 µM"
>>> experimental_value("O=[N+]([O-])c1cnccc1-n1nnc2ccccc21")
"> 86.2 µM"

Query :: Find the measured TGI: item O=CC1C(=O)Nc2nc3ccccc3n2C1c1ccccc1 (stereo not given) , target or system UO-31 renal.
Result :: 27.4 µM

Query :: How about this compound: CC(=O)Oc1ccc(C2SCc3nc4ccccc4n32)cc1 (stereo not given)
Result :: > 61.5 µM

----------
- Tested on: KM12 colon
- assay protocol: NCI tumour cell line growth inhibition, 48 h
value kind: GI50

For orientation, consider the following solved cases.
>>> experimental_value("C/C(=N\\O)c1ccc(Nc2cc(-c3ccccc3)nc3c(O)cccc23)cc1")
"4.06 µM"
>>> experimental_value("Cc1nc(N(C)C)nc(-c2cccc(-c3ccn(CCN(C)C)n3)c2)c1C")
"> 20 µM"
>>> experimental_value("COc1ccc2c(c1)cn1c3ccc(OC)cc3[nH]c(=O)c21")
"< 0.0187 µM"

Query :: Could you share which GI50 value was measured for `C=C(C=O)[C@@H]1CC=C(C=O)CC1` ?
Result :: 4.21 µM

Query :: How about this compound: `CCc1cc(Cc2cc(CC)cc(C(C)(C)C)c2O)c(O)c(C(C)(C)C)c1`
Result :: 2.28 µM

Query :: How about this compound: `COc1cc(-c2cc(C(=O)N3CCN(C(=O)c4ccccc4NCc4cccs4)CC3)nc3cc(-c4ccccc4)nn23)cc(OC)c1OC`
Result :: 3.16 µM

----------
- System: DU-145 prostate
- assay protocol: NCI tumour cell line growth inhibition, 48 h
Listing: TGI of selected compounds
Hi! Could you send only the number? It should be in µM, unit omitted.

For orientation, consider the following solved cases.
>>> experimental_value("CCCCCCCCCCCC(=O)[O][Sn]([CH2]CCC)([CH2]CCC)[CH2]CCC")
0.17
>>> experimental_value("O=c1c(Br)ccc(Br)cc1Br")
3.14

Here's the next entry for you.
Query :: Could you share which TGI value was measured for COc1ccc(C(CC(=O)c2ccc(O)cc2)C(C(=O)c2ccc(O)cc2)C(c2ccc(OC)cc2)C2C(=O)NC(=S)NC2=O)cc1 (stereo unspecified) ?
Result :: 33.8

----------
Listing: TGI of selected molecules
- Tested on: HL-60(TB) leukemia
- assay protocol: NCI tumour cell line growth inhibition, 48 h

>>> experimental_value("CC1(C)C/C=C\\CCC(O)C(O)CCC(C)(C)C1=O (stereo unspecified)")
"> 100 µM"
>>> experimental_value("COC(=O)C(Cc1cc(OC)c(OC)c(OC)c1)(NC(=O)c1ccccc1)P(=O)(OC)OC (stereo unspecified)")
"> 100 µM"
>>> experimental_value("c1ccc(Oc2cnc3ccccc3n2)cc1")
"> 100 µM"
>>> experimental_value("COc1ccc2oc(=O)c(-c3nc4ccccc4s3)cc2c1")
"> 100 µM"
>>> experimental_value("COC1=C2C[C@](OC)(C#CC=CC#CC2O)CC1(C)C (stereo partly specified)")
"> 100 µM"

Here's the next entry for you.
Query :: Could you share which TGI value was measured for `COc1ccc(OC)c2c1-c1nnnn1CCC2(C)C` ?
Result :: > 100 µM

----------
Listing: TGI of selected compounds
- Tested on: K-562 leukemia
- assay protocol: NCI tumour cell line growth inhibition, 48 h

>>> experimental_value("COC(=O)c1cc(OCc2cc(OCc3ccc(Br)cc3)cc(OCc3ccc(Br)cc3)c2)cc(OCc2cc(OCc3ccc(Br)cc3)cc(OCc3ccc(Br)cc3)c2)c1")
"> 100 µM"
>>> experimental_value("CC(=O)c1ccc(-c2ccc(C(C)=O)s2)s1")
"> 100 µM"

Here's the next entry for you.
Query :: Could you share which TGI value was measured for `O=C(/C=C/c1ccco1)c1cccc(Nc2nc(Nc3ccccc3)nc(Nc3ccccc3)n2)c1` ?
Result :: > 56.1 µM

----------
- Tested on: DU-145 prostate
- assay protocol: NCI tumour cell line growth inhibition, 48 h
value kind: TGI

>>> experimental_value("COc1cc2oc(=O)cc(C)c2c(OC)c1OC")
"> 100 µM"
>>> experimental_value("COc1cc(Cl)c(C)cc1NC(=O)c1cc2ccccc2cc1O")
"14.4 µM"
>>> experimental_value("CC(=O)SC(C[N+](=O)[O-])c1ccccc1 (stereo not drawn)")
"> 46.7 µM"
>>> experimental_value("O=CC1C(=O)Nc2nc3ccccc3n2C1c1ccccc1 (stereo not drawn)")
"25.3 µM"
>>> experimental_value("CN(CC(=O)O)Cc1c[nH]c2ccccc12")
"> 100 µM"
>>> experimental_value("COc1cc(CNC(=O)CCCCCCCCCCSC#N)ccc1O")
"34.3 µM"
>>> experimental_value("COc1cccc(-c2nn(C)c3sc(C(=O)NCCN4CCN(c5ccccc5F)CC4)cc23)c1")
"> 100 µM"

Here's the next entry for you.
Query :: Could you share which TGI value was measured for Cc1cn(C2CC(/[N+]([O-])=N\Nc3ccc([N+](=O)[O-])cc3)C(CO)O2)c(=O)[nH]c1=O (stereo not drawn) ?
Result :: > 100 µM

----------
- Tested on: MDA-N
- assay protocol: NCI tumour cell line growth inhibition, 48 h
Listing: TGI of selected compounds

For orientation, consider the following solved cases.
>>> experimental_value("CC1=NN(c2cccc(S(=O)(=O)O)c2)C2(C1)SCC(=O)N2c1nc2ccccc2s1 (centres undefined)")
"> 100 µM"
>>> experimental_value("COC(=O)CCC(=O)c1ccc2c(c1)CC1(Cc3ccccc3C1)C2")
"> 100 µM"
>>> experimental_value("N[C@@H](Cc1ccc(N(CCCl)CCCl)cc1)C(=O)O")
"126 µM"

Query :: Could you share which TGI value was measured for COC(=O)C1=C(C(=O)OC)C2CCC1CC2=O (centres undefined) ?
Result :: > 100 µM

----------
Listing: GI50 of selected compounds
- System: SF-268 CNS
- assay protocol: NCI tumour cell line growth inhibition, 48 h

For orientation, consider the following solved cases.
>>> experimental_value("CN(Cc1cccc(Cl)c1)c1ccc(CO)c(Cl)c1")
"24 µM"
>>> experimental_value("COc1cc(-c2cc(C(=O)N3CCN(C(=O)c4ccccc4NCc4cccs4)CC3)nc3cc(-c4ccccc4)nn23)cc(OC)c1OC")
"5.93 µM"

Query :: Could you share which GI50 value was measured for `COc1ccc(-n2cc(-c3ccc(F)cc3)[nH]c2=O)cc1OC` ?
Result :: > 100 µM
